targetEntity: human GABAA α5β2γ1 receptor (Homo sapiens (Human), UniProt P31644+Q8N1C3)
experimentSummary: Radioligand binding assay, competition for [3H]RO7239181, membranes from HEK293F cells
endpointName: Ki (nM)
Number in nM, nothing else.

Use the examples below as a reference point.
structureNotation	recordedNumber
O=c1ccn2c(n1)CN=C(c1c(F)ccc(O)c1F)c1c-2ccc(Cl)c1Cl	0.85
Cc1nnc2n1-c1ccc(C(F)(F)F)c(Cl)c1C(c1cc(O)ccc1F)=NC2	0.86

API: the following record is the query input.
# Ki (compound: `Cc1nc2n(n1)-c1ccc(C(F)(F)F)c(Cl)c1C(c1nc(O)ccc1F)=N[C@H]2C` ) is 2.32
